- subject_of_test: T1, full-length human OX40 expressed on HuT78 cells (HuT78/OX40) (human, UniProt P43489 29-277)
- T1 sequence: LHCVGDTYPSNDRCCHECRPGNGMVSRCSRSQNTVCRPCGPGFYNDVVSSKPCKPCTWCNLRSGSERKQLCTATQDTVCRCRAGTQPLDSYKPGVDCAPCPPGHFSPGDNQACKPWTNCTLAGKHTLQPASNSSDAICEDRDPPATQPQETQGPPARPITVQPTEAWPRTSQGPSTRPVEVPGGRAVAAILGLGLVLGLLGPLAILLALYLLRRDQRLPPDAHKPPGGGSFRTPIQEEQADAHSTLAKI
- experiment: FACS; cells not named on the sheet, HuT78/OX40 cells as in Example 5
measured_property: EC50 (µg/mL)
Express it in µg/mL; write the number only.

[in] What value of EC50 has been reported for the following binder? 445-1-2(S10T/E81D/D70E) (antibody, human IgG1, V domains shown) VH: QVQLVQSGAEVKKPGSSVKVSCKASGYKFTSYIIHWVRQAPGQGLEWMGYINPYNDGTRYNQKFQGRVTLTSDKSTSTAYMELSSLRSEDTAVYYCARGYYGSSYAMDYWGQGTTVTVSS VL: DIQMTQSPSTLSASVGDRVTITCSASQGISNYLNWYQQKPGKAIKLLIYDTSTLYSGVPSRFSGSGSGTEYTLTISSLQPDDFATYYCQQYSKLPYTFGGGTKVEIK
[out] 0.28

Hello, the source for this data is patent US20230011916A1, in case you need it.
